target: human GLP-1 receptor (human, UniProt P43220 24-463); test: cell-based or functional assay
Bridges are numbered along the chain shown (N, C = ends). Where no end group is shown, it is not given here. [ ]: non-standard residue; d: D form. The star is where a group is joined. Acetyl(2-(4-imidazolyl)) = O=C(Cc1c[nH]cn1)*; Aib = CC(C)(N)C(=O)O
Each entry falls into one class according to its in vitro Activity Compared to Native Peptide (%), vs GLP-1; the ranges are Low: < 8%; Medium: ≥ 8% and < 40%; High: ≥ 40%

Qu. Exercise: read the entry Y[Aib]QGTFTSDYSKALDEKAAKEFVNWLLDQHPSSGQPPPSC (bridge 16-20; not fully specified (C-terminus); also: ring type not given here) [triple agonist of SEQ ID NO: 101] and state which class it falls under.
Ans. Medium

Qu. Exercise: read the entry [Acetyl(2-(4-imidazolyl))][Aib]QGTFTSDYSKYLDEKRQKEFVQWLLDTC (bridge 16-20; not fully specified (C-terminus)) [triple agonist of SEQ ID NO: 82] and state which class it falls under.
Ans. Medium

Qu. Exercise: read the entry Y[Aib]QGTFTSDYSKALDEKAAKEFVQWLLDQHPSSGQPPPSC (bridge 16-20; not fully specified (C-terminus); also: ring type not given here) [triple agonist of SEQ ID NO: 100] and state which class it falls under.
Ans. High

Qu. Exercise: read the entry H[Aib]EGTFTSDYSIAMDEIHQKDFVNWLLAQKC (bridge 16-20; not fully specified (C-terminus)) [triple agonist of SEQ ID NO: 79] and state which class it falls under.
Ans. High

Qu. Exercise: read the entry HGQGTFTSDCSKYLDGQRAQEFVAWLLAGGPSSGAPPPS (not fully specified (C-terminus)) [triple agonist of SEQ ID NO: 47] and state which class it falls under.
Ans. Low

Qu. Exercise: read the entry [Acetyl(2-(4-imidazolyl))][Aib]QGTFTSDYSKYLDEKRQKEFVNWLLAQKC (bridge 16-20; not fully specified (C-terminus)) [triple agonist of SEQ ID NO: 93] and state which class it falls under.
Ans. Low

Qu. Exercise: read the entry H[Aib]QGTFTSDYSIAMDEIHQKDFVNWLLNTKC (bridge 16-20; not fully specified (C-terminus)) [triple agonist of SEQ ID NO: 35] and state which class it falls under.
Ans. Low
